Assay: Half-life in phosphate buffer
Assay type: ADME
Measured half-life values are reported for all entries that follow.
Report the figure in h without appending any unit label.

query.smiles	half-life (h)
CCCC[C@H](NC(=O)[C@@H](CO)NC(=O)CN(CCN)C(=O)Oc1cc(/C=C\c2cc(OC)c(OC)c(OC)c2)ccc1OC)C(=O)N[C@H](Cc1ccc(O)cc1)C(=O)N[C@H](CO)C(=O)N[C@@H]1CSSC[C@H](C(=O)N[C@H](C(N)=O)[C@@H](C)O)NC(=O)[C@H]([C@@H](C)O)NC(=O)[C@H](CCCN)NC(=O)[C@@H](Cc2c[nH]c3ccccc23)NC(=O)[C@H](Cc2ccccc2)NC1=O	31

Then there is this compound:
Problem: Name the recorded half-life for `CCCC[C@H](NC(=O)[C@@H](CO)NC(=O)CN(CCNC)C(=O)O[C@]1(CC)C(=O)OCc2c1cc1n(c2=O)Cc2cc3ccccc3nc2-1)C(=O)N[C@H](Cc1ccc(O)cc1)C(=O)N[C@H](CO)C(=O)N[C@@H]1CSSC[C@H](C(=O)N[C@H](C(N)=O)[C@@H](C)O)NC(=O)[C@H]([C@@H](C)O)NC(=O)[C@H](CCCN)NC(=O)[C@@H](Cc2c[nH]c3ccccc23)NC(=O)[C@H](Cc2ccccc2)NC1=O` .
Solution: 123

Value source: ChEMBL document CHEMBL1136609
